- System: full length human vWF (SEQ ID NO 7)
- method: dot blot KD determination and extent of binding, full length human vWF;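 note: dot blot binding of aptamers to full length human vWF across a protein titration, incubated 30 minutes at room temperature in 1x DPBS with BSA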
- stated conditions: Phase 1 modification; extent of aptamer binding at 100 nM full length human vWF
Oligonucleotides are written 5' to 3', each unit as a sugar letter and its base; * is a phosphorothioate linkage, no mark a phosphodiester; rarer units and linkages stand in square brackets, end groups in braces. Plain capitals give the bases only. [invdT] = inverted (3'-3') thymidine; d = 2'-deoxy (DNA); m = 2'-O-methyl
result type: % binding @ 100 nM vWF
Please format your answer as a value with the unit trailing.

API: value(readout= % binding @ 100 nM vWF, system= full length human vWF (SEQ ID NO 7), query= ARC1213: ARC1172 with one residue replaced by 2'-O methyl residue (DNA dGdGdCdGdTdGdCdAdGdTdGdCdCdTdTdCdGdGdCmCdGdTdGdCdGdGdTdGdCdCdTdCdCdGdTdCdAdCdGdCdC[invdT]; aptamer) )
43%

Then this substance: ARC1233: ARC1172 with one residue replaced by 2'-O methyl residue (dGdGdCdGdTdGdCdAdGdTdGdCdCdTdTdCdGdGdCdCdGdTdGdCdGdGdTdGdCdCdTdCdCdGdTdCdAdCdGmCdC[invdT]; aptamer)
39%

Then this substance: ARC1234: ARC1172 with one residue replaced by 2'-O methyl residue (dGdGdCdGdTdGdCdAdGdTdGdCdCdTdTdCdGdGdCdCdGdTdGdCdGdGdTdGdCdCdTdCdCdGdTdCdAdCdGdCmC[invdT]; aptamer)
42%

Then this substance: ARC1207: ARC1172 with one residue replaced by 2'-O methyl residue (DNA dGdGdCdGdTdGdCdAdGdTdGdCdCmUdTdCdGdGdCdCdGdTdGdCdGdGdTdGdCdCdTdCdCdGdTdCdAdCdGdCdC[invdT]; aptamer)
54%

Then this substance: ARC1231: ARC1172 with one residue replaced by 2'-O methyl residue (dGdGdCdGdTdGdCdAdGdTdGdCdCdTdTdCdGdGdCdCdGdTdGdCdGdGdTdGdCdCdTdCdCdGdTdCdAmCdGdCdC[invdT]; aptamer)
50%

Then this substance: ARC1204: ARC1172 with one residue replaced by 2'-O methyl residue (DNA dGdGdCdGdTdGdCdAdGdTmGdCdCdTdTdCdGdGdCdCdGdTdGdCdGdGdTdGdCdCdTdCdCdGdTdCdAdCdGdCdC[invdT]; aptamer)
45%

Then this substance: ARC1216: ARC1172 with one residue replaced by 2'-O methyl residue (DNA dGdGdCdGdTdGdCdAdGdTdGdCdCdTdTdCdGdGdCdCdGdTmGdCdGdGdTdGdCdCdTdCdCdGdTdCdAdCdGdCdC[invdT]; aptamer)
40%

From: patent US7998940B2
